Cited source for all entries: paper PMC9951844

- assayed_system: SARS-CoV-2 Beta (B.1.351) S1 (SARS-CoV-2 Beta (B.1.351), strain)

- binder: "YB9-120 (antibody, V domains shown) VH: QVQLQESGPGLVKPSGTLSLTCAVSGGSIRTTKWWSWVRQPPGKGLEWIGEIHHGGNTNYNPSLKSRVTISVDKSKNQFSLKLTSVTAADTAVYYCARDGGGVGTPLEYWGQGTLVTVSS VL: QSGLTQPASVSGSPGQSITISCTGTISDVGAYNYVSWYQQHPGRAPKVVIYDVSERPSGTSNRFSGSKSGNTASLTISGLQAEDEADYYCSSFTNTTPVVFGGGTKLTVL"
  binding result: "binds"
- binder: "YB13-291 (antibody, V domains shown) V domain 1: QITLKESGPTLVKPTQTLTLTCTFSGFSLNTAGVAVGWIRQPPGKAREWLALIYWDDDQRYSPSLESRLTITKDTSKNLVVLTMTNMDPVDTATYYCAHPRYFSDNSAYYWIWGQGTMVTVSS V domain 2: SYDLTQPPSVSVSPGQTATISCSGDALPKQYVYWYQQKPGQAPVLVIYKDSERPSGIPERFSGSNSGTTVTLTISGVQAEDEAEYYCQSADSSGFYVFGSGTQVTVL"
  binding result: "binds"
- binder: "YB12-267 (antibody, V domains shown) VH: KVQLVESGGGLIQPGGSLRLSCAASGLTVSSNYMNWVRQAPGKGLEWVSLIFSGGSTYYADSVKGRFTISRDYSKNTLYLQMNSLRAEDTAVYYCARDLMEVGGMDVWGQGTTVTVSS VL: QSVLTQPPSASGTPGQRVTISCSGSSSYIGSIYWYQQLPGAAPKLLVFSDHKRPSGVPDRFSGSKSGTSASLAISGLQSEDEAGYYCATWDDSLNGYVFGTGTKVTVL"
  binding result: "binds"
- binder: "YB13-217 (antibody, V domains shown) V domain 1: QVQLVESGGGVVQPGKSLRLSCTASGFTFSSHSMHWVRQAPGKGLDWVAVISFDGTKNYFADSLKGRFSVSRDNSRNTLYLQMNSLRVEDTAVYYCAREEGGSRMYHYYYGMDVWGQGTTVTVSS V domain 2: QSVLTQPPSASGTPGQRVTISCSGSSSNIGTNTVNWYQQLPGTAPKLLIYTNNQRPSGVPDRFSGSKSGTSASLAIGGLQSEDEADYYCAAWDDSVSSYVFGTGTQVTAL"
  binding result: "binds"
- binder: "YB9-102 (antibody, V domains shown) VH: EVQLLESGGGLVQPGGSLRLSCTASGFTFRYYAMTWVRQAPGKGLEWVSVIIGSGGDTYYADSVKGRFTISRDNSKNTLYLQMDSLRAEDTAVYYCATGELELGTCYFDYWGQGTLVTVSS VL: DIQMTQSPSSVSASVGDRVTITCRASQGISSWLAWYQQKPGEAPKLLISAASSLQSGVPSRFSGSGSETDFTLTISSVQPEDFATYYCQQANSFPQAFGQGTKVEIK"
  binding result: "binds"
